Cited source: PubChem BioAssay (NCI)

System: PC-3 prostate
testDescription: NCI tumour cell line growth inhibition, 48 h
quantityName: TGI (µM)
API: value field is a number in µM; no unit string.

// below: answered compounds
{"smilesText": "OCc1ccc(N2CCc3cccc(F)c3C2)cc1Cl", "unitInfo": "µM", "TGI": 47.9}
{"smilesText": "Nc1[nH]nc(Nc2ccc(Cl)cc2)c1P(=O)(c1ccccc1)c1ccccc1", "unitInfo": "µM", "TGI": 61.1}

Challenge: Let me know recorded TGI for `Cc1[nH]nc(C(F)(F)F)c1N=NN(C)C` , thanks.
Response given: 25.1

----------
Test system: KM12 colon
testDescription: NCI tumour cell line growth inhibition, 48 h
quantityName: TGI

The examples below pair each entry with its known result.
{"compound": "Cc1nc(-c2ccccc2)n2nc(NCCCN3CCOCC3)ncc12", "quantityName": "TGI", "result": "> 25 µM"}
{"compound": "CC(C)c1c(-c2ccccc2)nc2c(C#N)c[nH]n2c1=O", "quantityName": "TGI", "result": "> 100 µM"}

Shift focus to the following entry.
Challenge: Give reported TGI for CCC1CC2C(=O)N(c3ccccc3)C(=O)C2c2[nH]c3ccccc3c21 (stereo not drawn) (KM12 colon)
Response given: > 100 µM

----------
Readings of TGI for the listed compounds
System: SNB-75 CNS
testDescription: NCI tumour cell line growth inhibition, 48 h

Challenge: Tell me its TGI given `CCCC(CCC(N)=O)(CCC(N)=O)[N+](=O)[O-]` as the entry.
Response given: > 100 µM

Challenge: For the compound `O=C(Nc1cc(C(F)(F)F)ccc1Cl)c1ccc(NC2=C(Cl)C(=O)N(Cc3ccccc3)C2=O)cc1` , report TGI.
Response given: > 100 µM

Challenge: Given the compound CN(CCCCCl)P(=O)(OCCS(=O)(=O)CC(NC(=O)CCC(N)C(=O)O)C(=O)NC(C(=O)O)c1ccccc1)OCC1OC(n2ccc(N)nc2=O)C(F)(F)C1O (stereo not given) , write its reported TGI.
Response given: > 25.2 µM

Challenge: Answer with the recorded TGI of `Cc1nn[n-]n1.N.N.N.N.N.[Cl-].[Co+3]` only.
Response given: > 100 µM

Challenge: Please give the documented TGI of CN(C(=O)C12C3C4C5C3C1(C(=O)C13C6C7C8C6C1C8C73)C5C42)C(C)(C)C (stereo not given)
Response given: > 50 µM

Challenge: Tell me TGI reported for `CC(C)CCC[C@@H](C)[C@H]1CC[C@H]2[C@@H]3CC[C@H]4C[C@@H](CCC=C(c5cc(Cl)c(O)c(C(=O)O)c5)c5cc(Cl)c(O)c(C(=O)O)c5)CC[C@]4(C)[C@H]3CC[C@]12C`
Response given: > 100 µM

Challenge: Return value of TGI for input COc1ccc(C(=O)O[C@H]2[C@@H]3C=CO[C@@H](OC4OC(CO)C(O)C(O)C4O)[C@@H]3[C@@]3(CO)O[C@@H]23)cc1O (stereo not given in full) , no commentary.
Response given: > 100 µM

Challenge: Tell me TGI reported for `Cc1nc(-c2ccccc2)n2nc(NCCCN3CCOCC3)ncc12`
Response given: > 25 µM

Challenge: Tell me its TGI given `[C](#Cc1ccccc1)[Hg][C]#Cc1ccccc1` as the entry.
Response given: > 100 µM

Challenge: Fill in reported TGI for this entry: Cc1ccccc1OC(C)C(=O)NN1C(=O)CSC1c1ccc(Cl)cc1 (stereo not given)
Response given: > 100 µM
